Field: max response, negative = inhibition. Provide a value for each of the molecules that follow.
# Target: Serine/threonine-protein kinase PLK1 (Homo sapiens) (UniProt P53350)
# Sequence (P53350 whole entry, looked up, the tested form may be a part): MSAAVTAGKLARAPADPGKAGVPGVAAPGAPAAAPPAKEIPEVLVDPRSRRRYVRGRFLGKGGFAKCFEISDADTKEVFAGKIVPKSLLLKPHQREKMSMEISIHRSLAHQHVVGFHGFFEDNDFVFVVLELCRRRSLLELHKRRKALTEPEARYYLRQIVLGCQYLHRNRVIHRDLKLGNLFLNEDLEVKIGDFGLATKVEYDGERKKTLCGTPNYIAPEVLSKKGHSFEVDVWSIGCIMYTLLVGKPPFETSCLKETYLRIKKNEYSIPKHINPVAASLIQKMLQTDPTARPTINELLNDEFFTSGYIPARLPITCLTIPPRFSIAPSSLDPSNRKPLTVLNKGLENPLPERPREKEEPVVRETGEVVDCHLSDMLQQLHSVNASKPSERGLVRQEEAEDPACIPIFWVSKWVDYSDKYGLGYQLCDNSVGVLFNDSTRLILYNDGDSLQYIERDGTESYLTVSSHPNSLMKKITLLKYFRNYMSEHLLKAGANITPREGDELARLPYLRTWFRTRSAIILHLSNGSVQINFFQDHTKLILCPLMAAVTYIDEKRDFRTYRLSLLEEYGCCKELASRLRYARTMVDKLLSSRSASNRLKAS
# Assay Info: qHTS for Inhibitors of PLK1-PDB (polo-like kinase 1 - polo-box domain): Primary Screen; note: series mostly up to about 57 µM; % is set by controls: 0 for no effect and ±100 for the full control effect; nearly all actives have a fitted effect of over 65% in size
# Assay Setup: Plk1 PBD binding of FITC phosphopeptide, fluorescence polarization
The campaign covered roughly 360,000 compounds. About 10,000 (2.8%) were called active. Roughly 4% stayed inconclusive and do not appear here. Shown is part of a subset that was picked to be rich in actives.
Number in %, nothing else.

Look up max response, negative = inhibition: CN1CCN(CCCNC(=O)c2ccc(/C=C3\Oc4ccccc4N(Cc4ccc(Cl)cc4)C3=O)cc2)CC1 -4.87

Look up max response, negative = inhibition: O=C1Nc2ccccc2NC(c2ccc3c(c2)OCO3)=C1N(Cc1ccc(F)cc1)C(=O)c1ccco1 -4.45

Look up max response, negative = inhibition: COc1ccc(CN(C)C(=O)Cc2ccsc2)c(OC)c1OC -14.4

Look up max response, negative = inhibition: COc1ccc(CNC(=O)COC(=O)c2c(C)nn(-c3ccccc3)c2C)cc1OC -2.1

Look up max response, negative = inhibition: CCCNC(=O)C1(C)CCN(C(=O)c2ccc(F)cc2Cl)C1 (stereo not drawn) -7.53

Look up max response, negative = inhibition: CC(C)OC(=O)c1cc(NC(=O)C2C3CCC(O3)C2C(=O)O)cc(C(=O)OC(C)C)c1 (stereo not drawn) -3.95

Look up max response, negative = inhibition: COc1ccc(Cl)cc1-c1cc(C(=O)Nc2cc(OC)c(OC)c(OC)c2)[nH]n1 -0.229

Look up max response, negative = inhibition: Cc1ccc(F)c(NC(=O)CCc2ccccc2)c1 -9.88

Look up max response, negative = inhibition: Cc1cc(C(=O)OCC(=O)Nc2nnc(C(C)C)s2)c2ccccc2n1 -7.1

Look up max response, negative = inhibition: Cc1cccc(C)c1NC(=O)COC(=O)c1c(C)nn(-c2ccccc2)c1C 2.85

Look up max response, negative = inhibition: CCOC(=O)[C@]12CCCC=C1N(CCC1=CCCCC1)C(=O)[C@H](CC(=O)N1CCSCC1)C2 1.28

Look up max response, negative = inhibition: CCc1noc(C)c1C(=O)OCC(=O)c1ccc(NC(=O)CC(C)C)cc1 -8.24

Look up max response, negative = inhibition: Cc1cccc(N2CCN(C(=O)C3CCN(S(=O)(=O)c4cnc[nH]4)CC3)CC2)c1C 3.15
